Origin of values: ChEMBL document CHEMBL1132600

Measured Rate of hydrolysis (nM min-1 mg-1), listed per entry for reference.
Molecular target: UniProt P97612
Sequence (whole entry): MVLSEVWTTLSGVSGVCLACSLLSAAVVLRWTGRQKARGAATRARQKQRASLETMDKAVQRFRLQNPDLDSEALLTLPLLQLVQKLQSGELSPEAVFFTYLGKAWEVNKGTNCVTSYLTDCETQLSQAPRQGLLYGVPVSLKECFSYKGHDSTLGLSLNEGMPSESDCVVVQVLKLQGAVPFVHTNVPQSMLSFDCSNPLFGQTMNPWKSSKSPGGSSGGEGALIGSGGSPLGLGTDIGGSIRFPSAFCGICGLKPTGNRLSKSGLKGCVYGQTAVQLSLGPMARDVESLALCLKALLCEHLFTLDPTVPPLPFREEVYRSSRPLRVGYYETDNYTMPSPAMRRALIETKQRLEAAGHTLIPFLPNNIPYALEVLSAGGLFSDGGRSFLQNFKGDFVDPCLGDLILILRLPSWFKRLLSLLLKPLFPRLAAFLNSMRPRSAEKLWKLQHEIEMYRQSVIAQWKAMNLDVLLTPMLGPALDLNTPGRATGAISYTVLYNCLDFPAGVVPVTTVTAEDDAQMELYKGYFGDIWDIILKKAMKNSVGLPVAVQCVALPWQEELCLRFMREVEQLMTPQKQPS
Test: Tested for hydrolysis by rat brain microsomal anandamide amidohydrolase (AAH).
Respond using a number only.

Field: example entries. Status: answers known.
>>> numeric_result("CCCCC/C=C\\C/C=C\\C/C=C\\C/C=C\\CCCC(=O)OCC(O)CO (configuration not stated)")
3.43
>>> numeric_result("CCCCC/C=C\\C/C=C\\C/C=C\\C/C=C\\CCCC(=O)Nc1ccccc1O")
2.51
>>> numeric_result("CCCCC/C=C\\C/C=C\\C/C=C\\C/C=C\\CCCC(=O)NC[C@@H](C)O")
1.58
>>> numeric_result("CCCCC/C=C\\C/C=C\\C/C=C\\C/C=C\\CCCC(=O)N[C@H](C)CC")
0

# input compound: CCCCC/C=C\C/C=C\C/C=C\C/C=C\CCCC(=O)NCC(C)C ; wanted: its Rate of hydrolysis (nM min-1 mg-1)
0.025

# input compound: CCCCC/C=C\C/C=C\C/C=C\C/C=C\CCCC(=O)Nc1ccc(O)cc1 ; wanted: its Rate of hydrolysis (nM min-1 mg-1)
0.208

# input compound: CCCCC/C=C\C/C=C\CCCCCCCC(=O)NCCO ; wanted: its Rate of hydrolysis (nM min-1 mg-1)
0.98

# input compound: CCCCCCCC/C=C\CCCCCCCC(=O)NCCO ; wanted: its Rate of hydrolysis (nM min-1 mg-1)
0.79

---

Target: Fatty-acid amide hydrolase 1 (Rattus norvegicus)
Test: Tested for hydrolysis by rat brain microsomal anandamide amidohydrolase (AAH).
Measured Rate of hydrolysis (nM min-1 mg-1), listed per entry for reference.
Respond using a number only.

Field: example entries. Status: answers known.
>>> numeric_result("CCCCC/C=C\\C/C=C\\C/C=C\\C/C=C\\CCCC(=O)N[C@H](C)CO")
0.03
>>> numeric_result("CCCCC/C=C\\C/C=C\\C/C=C\\C/C=C\\CCCC(=O)N[C@@H](C)CO")
0.299
>>> numeric_result("CCCCC/C=C\\C/C=C\\C/C=C\\C/C=C\\CCCC(=O)NC1CCC(O)CC1 (configuration not stated)")
0.299
>>> numeric_result("CCCCC/C=C\\C/C=C\\C/C=C\\C/C=C\\CCCC(=O)NC(C)(C)C")
0.022

# input compound: CCCCC/C=C\C/C=C\C/C=C\C/C=C\CCC(C)(C)C(=O)NCCO ; wanted: its Rate of hydrolysis (nM min-1 mg-1)
0.0094

# input compound: CCCCC/C=C\C/C=C\C/C=C\C/C=C\CCCC(=O)Nc1cccc(O)c1 ; wanted: its Rate of hydrolysis (nM min-1 mg-1)
1.98

# input compound: CCCCC/C=C\C/C=C\C/C=C\C/C=C\CCCC(=O)NC[C@H](C)O ; wanted: its Rate of hydrolysis (nM min-1 mg-1)
0.273
